Numbers sourced from ChEMBL document CHEMBL1833829.

- Assayed system: Cholinesterase (Equus caballus)
- Sequence (P81908 whole entry): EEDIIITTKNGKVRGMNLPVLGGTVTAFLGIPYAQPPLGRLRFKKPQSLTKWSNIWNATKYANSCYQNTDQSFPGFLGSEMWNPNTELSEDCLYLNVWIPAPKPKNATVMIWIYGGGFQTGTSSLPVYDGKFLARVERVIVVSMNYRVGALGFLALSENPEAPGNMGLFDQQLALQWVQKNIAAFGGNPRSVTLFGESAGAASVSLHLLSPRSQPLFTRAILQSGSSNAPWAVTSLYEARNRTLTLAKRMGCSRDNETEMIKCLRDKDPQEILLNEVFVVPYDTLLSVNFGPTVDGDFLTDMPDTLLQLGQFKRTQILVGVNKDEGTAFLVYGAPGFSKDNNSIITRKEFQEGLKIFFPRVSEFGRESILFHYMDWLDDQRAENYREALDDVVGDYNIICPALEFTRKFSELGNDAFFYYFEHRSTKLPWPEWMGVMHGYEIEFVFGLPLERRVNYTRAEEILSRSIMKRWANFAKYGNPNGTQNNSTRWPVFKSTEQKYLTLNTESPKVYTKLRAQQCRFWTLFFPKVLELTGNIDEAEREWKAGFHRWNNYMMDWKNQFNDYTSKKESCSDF
Answer each item with its documented pIC50.
Remember, pIC50 is on a log scale: it is -log10 of the molar concentration.

**Q:** Fill in the blank: the reported pIC50 of `CC(C)N1CCN(c2nccc(NCc3cccc4ccccc34)n2)CC1` is ____.
**A:** 5.12

**Q:** Fill in the blank: the reported pIC50 of `COCCN1CCN(c2nccc(NC(c3ccccc3)c3ccccc3)n2)CC1` is ____.
**A:** 4.55

**Q:** Fill in the blank: the reported pIC50 of `c1ccc2c(CNc3ccnc(N4CCNCC4)n3)cccc2c1` is ____.
**A:** 4.60
